- subject_of_test: T1, human TNFR1 on MRC-5 cells (human, UniProt P19438 30-455)
- T1 sequence (looked up): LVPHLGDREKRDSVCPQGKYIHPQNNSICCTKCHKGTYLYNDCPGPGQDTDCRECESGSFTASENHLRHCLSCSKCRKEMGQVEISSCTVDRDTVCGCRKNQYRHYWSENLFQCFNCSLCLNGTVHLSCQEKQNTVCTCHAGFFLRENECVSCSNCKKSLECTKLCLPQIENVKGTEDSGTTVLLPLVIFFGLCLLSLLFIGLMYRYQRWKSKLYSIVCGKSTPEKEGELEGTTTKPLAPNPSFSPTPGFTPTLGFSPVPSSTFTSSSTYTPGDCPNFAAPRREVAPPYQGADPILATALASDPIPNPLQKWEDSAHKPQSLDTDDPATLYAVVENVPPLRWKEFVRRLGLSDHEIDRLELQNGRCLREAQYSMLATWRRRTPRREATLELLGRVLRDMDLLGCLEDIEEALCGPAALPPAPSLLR
- assay: cell-based or functional assay
measured_property: MRC5 (ND50 in nM)

DMS0117 (bispecific antibody) EVQLLESGGGLVQPGGSLRLSCAASGFTFVKYSMGWVRQAPGKGLEWVSQISNTADRTYYAHSVKGRFTISRDNSKNTLYLQMNSLRAEDTAVYYCAIYTGRWVPFEYWGQGTLVTVSSASTSGPSDIQMTQSPSSLSASVGDRVTITCRASQWIGSQLSWYQQKPGKAPKLLIMWRSSLQSGVPSRFSGSGSGTDFTLTISSLQPEDFATYYCAQGLRHPKTFGQGTKVEIKR; 25.9 nM

For every record below, what is its MRC5 (ND50 in nM)?
1. DMS0124 (bispecific antibody, anti-TNFR1 dAb / AlbudAb in-line fusion) EVQLLESGGGLVQPGGSLRLSCAASGFTFVKYSMGWVRQAPGKGLEWVSQISNTADRTYYAHSVKGRFTISRDNSKNTLYLQMNSLRAEDTAVYYCAIYTGRWVPFEYWGQGTLVTVSSASGGGGSGGGGSGGGGSDIQMTQSPSSLSASVGDRVTITCRASQWIGSQLSWYQQKPGKAPKLLIMWRSSLQSGVPSRFSGSGSGTDFTLTISSLQPEDFATYYCAQGLMKPMTFGQGTKVEIKR
2. DMS0122 (bispecific antibody) EVQLLESGGGLVQPGGSLRLSCAASGFTFVKYSMGWVRQAPGKGLEWVSQISNTADRTYYAHSVKGRFTISRDNSKNTLYLQMNSLRAEDTAVYYCAIYTGRWVPFEYWGQGTLVTVSSASGGGGSGGGGSGGGGSDIQMTQSPSSLSASVGDRVTITCRASRPIGTMLSWYQQKPGKAPKLLILFGSRLQSGVPSRFSGSGSGTDFTLTISSLQPEDFATYYCAQAGTHPTTFGQGTKVEIKR

(A)
1. 1.9 nM
2. 1.5 nM
